FYI, the data here is from paper PMC9352680.

- assayedTarget: T1, PUF4 RNA-binding domain (Saccharomyces cerevisiae, UniProt P25339 537-888)
- T1 sequence: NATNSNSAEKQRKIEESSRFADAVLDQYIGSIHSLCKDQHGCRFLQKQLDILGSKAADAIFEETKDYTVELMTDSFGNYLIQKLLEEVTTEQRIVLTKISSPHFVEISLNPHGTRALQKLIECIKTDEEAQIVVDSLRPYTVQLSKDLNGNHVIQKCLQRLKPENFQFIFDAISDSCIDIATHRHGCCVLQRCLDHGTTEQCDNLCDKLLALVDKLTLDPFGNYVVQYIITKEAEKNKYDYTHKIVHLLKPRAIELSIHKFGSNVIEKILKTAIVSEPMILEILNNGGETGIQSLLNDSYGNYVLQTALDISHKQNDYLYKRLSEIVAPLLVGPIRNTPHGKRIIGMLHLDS
- testProtocol: Mg; RNA-MaP; 20 mM Na-HEPES pH 7.4, 30 mM KOAc, 0.75 mM MgCl2, 0.1% Tween-20, 5% glycerol, 0.1 mg/mL BSA, 2 mM DTT; 25 C; 0.0125-409.6 nM protein
- measurementConditions: tags: N-His6-TEV cleaved; C-SNAP kept, Cy3B-labelled; label: tethered on chip by stalled RNA polymerase
pKd: −log10 of the molar value.
property: pKd

[[record]]
binder = "Ic_S4_P5E.1_K5.1_C5.1_H5.1_A5.1_[T5C]_F5.1_[T8C]_[T9A]_[A10C]_T5.1 (ssRNA) RNA: UUUGACAACUGAUCGUUCUUUCUUGUACUACACUUCUUUCUCGAUCAGUUGUCUUU"
property = "pKd"
prefixoperator = "="
recordedresult = 6.27

[[record]]
binder = "Ie_S4_P5E.1_K5.1_C5.1_H5.1_[+2TCT]_A5.1_F5.1_T5.1 (ssRNA) RNA: UUUGACAACUGAUCGUUCUUUCUUGUCUUAUUAUUAUUCUUUCUCGAUCAGUUGUCUUU"
property = "pKd"
prefixoperator = "="
recordedresult = 7.82

[[record]]
binder = "UCUCUUUGUCUUAUUUUCUCUU (ssRNA) [Ib_S1_P5E.1_K5.1_C5.1_H5.1_[A4C]_A5.1_F5.1_[A10T]_T5.1]"
property = "pKd"
prefixoperator = "="
recordedresult = 6.11

[[record]]
binder = "Ic_S2_P3E.1_K3.1_C3.1_H3.1_A3.1_[T5C]_[A6T]_F3.1_[A8G]_T3.1 (ssRNA) RNA: UUUGAUUAAUAUGAUAUCGUUCUUUCUUGUACUUGUUCUUUCUCGAUAUCAUAUUAAUCUUU"
property = "pKd"
prefixoperator = "="
recordedresult = 6.97

[[record]]
binder = "Ic_S2_P3E.1_K3.1_C3.1_H3.1_A3.1_[T5G]_[A6C]_F3.1_[T7C]_[A8C]_T3.1 (ssRNA) RNA: UUUGAUUAAUAUGAUAUCGUUCUUUCUUGUAGCCCUUCUUUCUCGAUAUCAUAUUAAUCUUU"
property = "pKd"
prefixoperator = "="
recordedresult = 6.28

[[record]]
binder = "ACAAACGAUAUAUAUAAAACAAAC (ssRNA) [Id_ii_S3_P3E.3_K3.2_C3.2_[C-2G]_[T-1A]_H3.2_A3.1_F3.1_T3.2_[T9A]]"
property = "pKd"
prefixoperator = "="
recordedresult = 5.97

[[record]]
binder = "Ie_S2_P4E.1_K4.1_C4.1_H4.1_A4.1_F4.1_[+9CCTCT]_T4.1 (ssRNA) RNA: UUUGAUUAAUAUGAUAUCGUUCUUUCUUGUAUAUUACCUCUUUCUUUCUCGAUAUCAUAUUAAUCUUU"
property = "pKd"
prefixoperator = "="
recordedresult = 9.13

[[record]]
binder = "Ie_S4_P4E.1_K4.1_C4.1_H4.1_A4.1_[+5CC]_F4.1_T4.1 (ssRNA) RNA: UUUGACAACUGAUCGUUCUUUCUUGUAUCCAUUAUUCUUUCUCGAUCAGUUGUCUUU"
property = "pKd"
prefixoperator = "="
recordedresult = 7.87

[[record]]
binder = "Id_ii_S2_P4E.3_K4.2_C4.2_[C-2T]_[T-1A]_H4.2_A4.1_F4.1_T4.2_[G10C]_[T11C] (ssRNA) RNA: UUUGAUUAAUAUGAUAUCGUUCUUUCUUAUAUAUAUUACCUUCUUUCUCGAUAUCAUAUUAAUCUUU"
property = "pKd"
prefixoperator = "="
recordedresult = 7.83

[[record]]
binder = "Ic_S2_P4E.1_K4.1_C4.1_H4.1_A4.1_[A6T]_[T7C]_F4.1_[T8A]_[A9C]_T4.1 (ssRNA) RNA: UUUGAUUAAUAUGAUAUCGUUCUUUCUUGUAUUCACUUCUUUCUCGAUAUCAUAUUAAUCUUU"
property = "pKd"
prefixoperator = "="
recordedresult = 6.23

[[record]]
binder = "UCUCUUUUUGUAUAUUAUGUCUCUU (ssRNA) [Id_ii_S1_P4E.2_K4.1_C4.2_[C-2T]_H4.1_A4.1_F4.1_T4.2_[G10T]_[T11G]]"
property = "pKd"
prefixoperator = "="
recordedresult = 9.01

[[record]]
binder = "UCUCUUUGUACCCGGUCUCUU (ssRNA) [Ic_S1_P4E.1_K4.1_C4.1_H4.1_A4.1_[T5C]_[A6C]_[T7C]_F4.1_[T8G]_[A9G]_T4.1]"
property = "pKd"
prefixoperator = "<"
recordedresult = 5.64

